assay_comment: Cmax in beagle dog at 5 mg/kg, po
Type: ADME, organism-based, Canis lupus familiaris
Parameters: dose 5 mg/kg, route oral
applied_conditions: in vivo
test_readout: Cmax (ng/mL)

1) C1=C2COC/C=C/COCc3cc(ccc3OCCN3CCCC3)Nc3nccc(n3)C(=C1)O2 (mixture of isomers)
27

* * *

assayed_target: Tyrosine-protein kinase JAK3 (Homo sapiens)
Sequence (P52333 whole entry): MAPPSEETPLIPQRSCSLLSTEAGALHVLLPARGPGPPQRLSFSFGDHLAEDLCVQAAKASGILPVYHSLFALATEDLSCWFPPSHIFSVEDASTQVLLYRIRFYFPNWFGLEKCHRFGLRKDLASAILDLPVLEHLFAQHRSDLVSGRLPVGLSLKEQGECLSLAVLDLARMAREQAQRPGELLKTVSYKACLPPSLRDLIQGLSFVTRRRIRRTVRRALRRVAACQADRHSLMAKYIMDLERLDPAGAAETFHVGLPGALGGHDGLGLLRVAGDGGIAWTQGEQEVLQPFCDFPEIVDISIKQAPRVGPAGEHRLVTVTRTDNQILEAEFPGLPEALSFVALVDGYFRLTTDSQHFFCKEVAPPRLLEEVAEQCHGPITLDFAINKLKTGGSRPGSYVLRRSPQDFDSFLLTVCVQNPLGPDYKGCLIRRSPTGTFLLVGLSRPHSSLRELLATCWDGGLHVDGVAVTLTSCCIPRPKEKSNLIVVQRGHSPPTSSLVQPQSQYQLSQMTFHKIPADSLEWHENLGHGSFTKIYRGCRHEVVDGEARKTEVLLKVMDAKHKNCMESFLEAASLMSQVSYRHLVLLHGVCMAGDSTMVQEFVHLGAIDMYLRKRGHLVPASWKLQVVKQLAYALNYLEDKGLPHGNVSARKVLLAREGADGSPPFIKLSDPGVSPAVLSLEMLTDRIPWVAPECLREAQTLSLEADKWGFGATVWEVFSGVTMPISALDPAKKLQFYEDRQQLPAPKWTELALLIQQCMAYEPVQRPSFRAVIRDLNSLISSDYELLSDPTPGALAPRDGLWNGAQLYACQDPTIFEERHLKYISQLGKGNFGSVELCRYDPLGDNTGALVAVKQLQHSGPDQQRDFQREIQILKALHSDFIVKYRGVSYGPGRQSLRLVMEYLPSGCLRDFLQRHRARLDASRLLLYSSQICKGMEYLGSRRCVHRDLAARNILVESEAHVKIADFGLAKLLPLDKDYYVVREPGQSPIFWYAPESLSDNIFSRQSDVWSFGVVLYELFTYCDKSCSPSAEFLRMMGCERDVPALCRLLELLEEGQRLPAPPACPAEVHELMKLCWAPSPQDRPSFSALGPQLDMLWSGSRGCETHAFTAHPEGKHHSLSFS
assay_comment: Inhibition of recombinant JAK3 using poly(Glu,Ala,Tyr) as substrate after 2 hrs by luminometric assay
test_readout: IC50

1. COCCOc1ccc2cc1CN(C)C/C=C/COCC1=CC=C(O1)c1ccnc(n1)N2 (mixture of isomers)
> 10 µM
2. CN1C/C=C/COCc2cncc(c2)-c2ccnc(n2)Nc2cccc(c2)C1 (mixture of isomers)
> 10 µM
3. CN1C/C=C/COCC2CCCN(C2)c2ccnc(n2)Nc2cccc(c2)C1 (mixture of isomers)
> 10 µM
4. CN1C/C=C/CCn2ccc3ccc(cc32)-c2ccnc(n2)Nc2cccc(c2)C1 (mixture of isomers)
> 10 µM
5. CN1C/C=C/COCC2=CC=C(O2)c2ccnc(n2)Nc2ccc(OCCN3CCCC3)c(c2)C1 (mixture of isomers)
> 10 µM
6. Cc1cnc2nc1-c1ccc3ccn(c3c1)C/C=C/COCc1cc(ccc1OCCN1CCCC1)N2 (mixture of isomers)
> 10 µM
7. C1=C/COCc2cncc(c2)-c2ccnc(n2)Nc2cccc(c2)COC/1
> 10 µM
8. C1=C/COCc2cc(ccc2OCCN2CCCC2)Nc2nccc(n2)-c2cc(co2)COC/1 (mixture of isomers)
9.2 µM
9. C1=C/COCc2cc(ccc2OCCN2CCCC2)Nc2nccc(n2)-c2csc(c2)COC/1 (mixture of isomers)
0.68 µM
10. COCCOc1ccc2cc1CN(C)C/C=C/COCC1=CC=C(S1)c1ccnc(n1)N2 (mixture of isomers)
> 10 µM
11. C1=C/COCc2cc(ccc2OCCN2CCCC2)Nc2nccc(n2)-c2coc(c2)COC/1 (mixture of isomers)
8.8 µM
12. CN1C/C=C/COCC2=CC=C(S2)c2ccnc(n2)Nc2ccc(OCCN3CCCC3)c(c2)C1 (mixture of isomers)
> 10 µM
13. C1=C/Cn2ccc3ccc(cc32)-c2ccnc(n2)Nc2cccc(c2)COC/1 (mixture of isomers)
> 10 µM
14. CN1C/C=C/COCC2=CC=C(O2)c2ccnc(n2)Nc2cccc(c2)C1 (mixture of isomers)
> 10 µM
15. C1=C2COC/C=C/COCc3cc(ccc3OCCN3CCCC3)Nc3nccc(n3)C(=C1)O2 (mixture of isomers) [CT-1578]
4.3 µM
16. C1=C/COCc2cc(ccc2OCCN2CCCC2)Nc2nccc(n2)-c2cncc(c2)COC/1 (mixture of isomers)
1 µM

* * *

Listed below: pIC50 values for each entry.
assayed_target: UniProt:O60674
Sequence (O60674 whole entry): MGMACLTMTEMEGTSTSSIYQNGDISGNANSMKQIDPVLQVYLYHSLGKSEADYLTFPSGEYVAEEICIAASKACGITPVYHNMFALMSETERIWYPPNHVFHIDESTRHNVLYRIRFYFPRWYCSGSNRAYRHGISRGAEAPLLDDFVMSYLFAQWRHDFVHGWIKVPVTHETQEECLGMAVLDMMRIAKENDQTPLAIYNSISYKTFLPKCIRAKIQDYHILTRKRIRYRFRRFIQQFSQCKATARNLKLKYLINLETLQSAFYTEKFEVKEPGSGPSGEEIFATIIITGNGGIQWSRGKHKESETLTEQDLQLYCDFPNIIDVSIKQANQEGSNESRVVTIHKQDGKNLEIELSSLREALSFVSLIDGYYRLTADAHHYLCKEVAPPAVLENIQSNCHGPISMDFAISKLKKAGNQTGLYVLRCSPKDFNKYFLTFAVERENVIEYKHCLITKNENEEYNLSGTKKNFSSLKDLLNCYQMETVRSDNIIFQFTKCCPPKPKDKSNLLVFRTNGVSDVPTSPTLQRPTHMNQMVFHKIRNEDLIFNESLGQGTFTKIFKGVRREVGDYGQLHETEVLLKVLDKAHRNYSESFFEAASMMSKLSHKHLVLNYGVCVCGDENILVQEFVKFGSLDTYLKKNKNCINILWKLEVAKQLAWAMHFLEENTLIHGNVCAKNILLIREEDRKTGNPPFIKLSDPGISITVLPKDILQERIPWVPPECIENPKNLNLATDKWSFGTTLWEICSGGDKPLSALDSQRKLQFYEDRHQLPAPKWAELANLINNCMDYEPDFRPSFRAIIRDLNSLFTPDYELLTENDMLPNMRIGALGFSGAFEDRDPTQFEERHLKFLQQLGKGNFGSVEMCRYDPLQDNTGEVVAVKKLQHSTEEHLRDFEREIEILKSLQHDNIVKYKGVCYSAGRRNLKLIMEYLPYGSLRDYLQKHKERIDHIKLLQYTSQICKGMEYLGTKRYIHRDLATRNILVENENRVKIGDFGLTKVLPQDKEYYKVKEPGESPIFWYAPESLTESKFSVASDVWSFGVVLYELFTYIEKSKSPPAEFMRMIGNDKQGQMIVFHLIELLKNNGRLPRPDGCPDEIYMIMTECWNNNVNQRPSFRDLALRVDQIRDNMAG
assay_comment: Inhibition of recombinant JAK2 using poly(Glu,Ala,Tyr) as substrate after 2 hrs by luminometric assay
pIC50: −log10 of the molar value.
test_readout: pIC50

1) C1=C2COC/C=C/COCc3cc(ccc3OCCN3CCCC3)Nc3nccc(n3)C(=C1)S2 (mixture of isomers)
8.14
2) CN1C/C=C/CCOc2cc(ccn2)-c2ccnc(n2)Nc2cccc(c2)C1 (mixture of isomers)
6.59
3) COCCOc1ccc2cc1CN(C)C/C=C/COCC1=CC=C(S1)c1ccnc(n1)N2 (mixture of isomers)
6.77
4) COCCOc1ccc2cc1CN(C)C/C=C/COCC1=CC=C(O1)c1ccnc(n1)N2 (mixture of isomers)
5.96

* * *

assayed_target: Cytochrome P450 1A2 (Homo sapiens, UniProt P05177)
Sequence (P05177 whole entry): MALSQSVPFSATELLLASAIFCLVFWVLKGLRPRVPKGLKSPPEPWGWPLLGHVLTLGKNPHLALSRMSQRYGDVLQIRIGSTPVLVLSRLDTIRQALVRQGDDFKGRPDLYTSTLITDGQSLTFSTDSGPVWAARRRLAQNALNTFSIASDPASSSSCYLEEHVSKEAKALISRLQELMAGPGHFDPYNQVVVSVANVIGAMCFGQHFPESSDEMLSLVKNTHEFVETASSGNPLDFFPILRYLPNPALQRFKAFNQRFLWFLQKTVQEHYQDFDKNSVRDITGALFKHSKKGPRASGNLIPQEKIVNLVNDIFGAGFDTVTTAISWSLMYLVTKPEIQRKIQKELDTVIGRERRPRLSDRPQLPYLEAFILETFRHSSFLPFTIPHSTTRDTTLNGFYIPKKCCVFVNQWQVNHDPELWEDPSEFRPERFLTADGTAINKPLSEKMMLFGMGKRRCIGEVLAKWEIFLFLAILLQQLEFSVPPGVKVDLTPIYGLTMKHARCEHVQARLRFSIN
pIC50: −log10 of the molar value.
test_readout: pIC50

1) C1=C2COC/C=C/COCc3cc(ccc3OCCN3CCCC3)Nc3nccc(n3)C(=C1)O2 (mixture of isomers)
< 5.00

* * *

assayed_target: Non-receptor tyrosine-protein kinase TYK2 (Homo sapiens, UniProt P29597)
Sequence (P29597 whole entry): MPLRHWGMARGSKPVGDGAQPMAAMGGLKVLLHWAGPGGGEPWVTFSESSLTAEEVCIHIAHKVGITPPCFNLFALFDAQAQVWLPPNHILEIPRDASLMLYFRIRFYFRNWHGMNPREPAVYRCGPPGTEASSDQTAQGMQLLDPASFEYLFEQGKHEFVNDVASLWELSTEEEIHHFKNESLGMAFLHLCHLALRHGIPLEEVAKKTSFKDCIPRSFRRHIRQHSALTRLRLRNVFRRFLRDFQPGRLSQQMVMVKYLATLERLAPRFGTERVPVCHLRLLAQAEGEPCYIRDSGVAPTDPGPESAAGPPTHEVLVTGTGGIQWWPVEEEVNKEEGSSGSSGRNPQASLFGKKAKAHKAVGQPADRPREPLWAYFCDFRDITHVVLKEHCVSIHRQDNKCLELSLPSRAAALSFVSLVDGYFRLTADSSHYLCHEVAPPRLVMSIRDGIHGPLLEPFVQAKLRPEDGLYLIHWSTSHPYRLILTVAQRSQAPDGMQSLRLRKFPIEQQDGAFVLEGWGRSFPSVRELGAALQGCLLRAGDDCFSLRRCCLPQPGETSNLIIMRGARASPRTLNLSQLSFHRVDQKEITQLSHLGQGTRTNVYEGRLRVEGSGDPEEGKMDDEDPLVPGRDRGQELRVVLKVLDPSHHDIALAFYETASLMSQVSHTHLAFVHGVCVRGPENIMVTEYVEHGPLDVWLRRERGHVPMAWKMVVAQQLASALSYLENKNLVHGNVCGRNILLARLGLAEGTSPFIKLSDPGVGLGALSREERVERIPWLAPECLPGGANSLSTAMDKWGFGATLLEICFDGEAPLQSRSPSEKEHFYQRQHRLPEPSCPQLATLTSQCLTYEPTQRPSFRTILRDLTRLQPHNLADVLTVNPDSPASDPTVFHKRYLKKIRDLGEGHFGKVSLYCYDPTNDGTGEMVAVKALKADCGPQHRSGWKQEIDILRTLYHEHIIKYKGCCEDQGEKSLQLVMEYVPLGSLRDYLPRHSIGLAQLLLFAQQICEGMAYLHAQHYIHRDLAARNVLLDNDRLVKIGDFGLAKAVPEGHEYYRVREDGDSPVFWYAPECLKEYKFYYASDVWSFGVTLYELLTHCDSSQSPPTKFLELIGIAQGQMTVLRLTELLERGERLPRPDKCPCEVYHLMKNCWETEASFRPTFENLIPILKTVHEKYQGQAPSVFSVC
pIC50: −log10 of the molar value.
Where pIC50 equals or exceeds 7, the correct label is criterion met; where it does not, the label is criterion not met.

1. COCCOc1ccc2cc1CN(C)C/C=C/COCC1=CC=C(S1)c1ccnc(n1)N2 (mixture of isomers)
criterion met
2. C1=C/COCc2cncc(c2)-c2ccnc(n2)Nc2cccc(c2)COC/1
criterion not met
3. CN1C/C=C/CCn2ccc3ccc(cc32)-c2ccnc(n2)Nc2cccc(c2)C1 (mixture of isomers)
criterion not met
4. Cc1cnc2nc1-c1ccc3ccn(c3c1)C/C=C/COCc1cc(ccc1OCCN1CCCC1)N2 (mixture of isomers)
criterion not met
5. C1=C2COC/C=C/COCc3cc(ccc3OCCN3CCCC3)Nc3nccc(n3)C(=C1)S2 (mixture of isomers)
criterion met
6. C1=C/COCc2cc(ccc2OCCN2CCCC2)Nc2nccc(n2)-c2csc(c2)COC/1 (mixture of isomers)
criterion met
7. C1=C2COC/C=C/COCc3cc(ccc3OCCN3CCCC3)Nc3nccc(n3)C(=C1)O2 (mixture of isomers)
criterion not met
8. CN1C/C=C/COCC2CCCN(C2)c2ccnc(n2)Nc2cccc(c2)C1 (mixture of isomers)
criterion not met
9. C1=C/COCc2cc(ccc2OCCN2CCCC2)Nc2nccc(n2)-c2cc(co2)COC/1 (mixture of isomers)
criterion not met
10. CN1C/C=C/COCc2cncc(c2)-c2ccnc(n2)Nc2cccc(c2)C1 (mixture of isomers)
criterion not met
11. COCCOc1ccc2cc1CN(C)C/C=C/COCC1=CC=C(O1)c1ccnc(n1)N2 (mixture of isomers)
criterion not met

* * *

assayed_target: Cytochrome P450 2C19 (Homo sapiens, UniProt P33261)
Sequence (P33261 whole entry): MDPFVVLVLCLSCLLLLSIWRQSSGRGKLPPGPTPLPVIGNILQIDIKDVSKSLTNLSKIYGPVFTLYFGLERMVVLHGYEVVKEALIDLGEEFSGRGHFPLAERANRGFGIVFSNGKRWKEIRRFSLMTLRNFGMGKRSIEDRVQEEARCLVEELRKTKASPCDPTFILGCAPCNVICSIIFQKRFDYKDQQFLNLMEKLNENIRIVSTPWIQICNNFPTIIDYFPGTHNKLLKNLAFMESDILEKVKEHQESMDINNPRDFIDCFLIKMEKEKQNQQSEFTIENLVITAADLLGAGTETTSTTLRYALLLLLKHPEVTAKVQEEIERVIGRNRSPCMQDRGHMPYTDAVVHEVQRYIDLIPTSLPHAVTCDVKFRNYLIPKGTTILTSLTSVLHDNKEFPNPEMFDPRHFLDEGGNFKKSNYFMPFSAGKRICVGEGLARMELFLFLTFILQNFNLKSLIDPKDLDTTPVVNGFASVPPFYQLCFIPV
pIC50: −log10 of the molar value.
test_readout: pIC50

1. C1=C2COC/C=C/COCc3cc(ccc3OCCN3CCCC3)Nc3nccc(n3)C(=C1)O2 (mixture of isomers)
5.85
